Each entry below lists one item and its recorded pIC50 value.
Test system: HCT-116
Assay: Cytotoxicity against human HCT-116 cells assessed as reduction in cell viability measured after 48 hrs by MTT assay
Type: functional, cell-based
Conditions: HCT-116, 48 h
pIC50: −log10 of the molar value.
measurement-kind: pIC50

C[C@H]1[C@H]2[C@H](C[C@H]3[C@@H]4CC=C5C[C@@H](O)CC[C@]5(C)[C@H]4CC[C@]23C)O[C@@H]1CC[C@@H](C)c1nnc(-c2cccnc2)s1 | 4.29
C[C@H]1[C@H]2[C@H](C[C@H]3[C@@H]4CC=C5C[C@@H](O)CC[C@]5(C)[C@H]4CC[C@]23C)O[C@@H]1CC[C@@H](C)c1nnc(-c2ccccc2)s1 | 4.31
Cc1nnc([C@H](C)CC[C@H]2O[C@H]3C[C@H]4[C@@H]5CC=C6C[C@@H](O)CC[C@]6(C)[C@H]5CC[C@]4(C)[C@H]3[C@@H]2C)s1 | 4.31
Cc1nnc([C@H](C)CC[C@H]2O[C@H]3C[C@H]4[C@@H]5CC=C6C[C@@H](O)CC[C@]6(C)[C@H]5CC[C@]4(C)[C@H]3[C@@H]2C)o1 | 4.29
CC(=O)O[C@H]1CC[C@@]2(C)C(=CC[C@H]3[C@@H]4C[C@@H]5O[C@H](CC[C@@H](C)c6nnc(-c7cccnc7)o6)[C@@H](C)[C@@H]5[C@@]4(C)CC[C@@H]32)C1 | 4.14
CC(=O)O[C@H]1CC[C@@]2(C)C(=CC[C@H]3[C@@H]4C[C@@H]5O[C@H](CC[C@H](C)c6nnc(-c7cccnc7)s6)[C@@H](C)[C@@H]5[C@@]4(C)CC[C@@H]32)C1 | 4.53
C[C@H]1[C@H]2[C@H](C[C@H]3[C@@H]4CC=C5C[C@@H](O)CC[C@]5(C)[C@H]4CC[C@]23C)O[C@@H]1CC[C@H](C)c1nnc(-c2cccc3ccccc23)s1 | 4.33
CC(=O)O[C@H]1CC[C@@]2(C)C(=CC[C@H]3[C@@H]4C[C@@H]5O[C@H](CC[C@@H](C)c6nnc(C)o6)[C@@H](C)[C@@H]5[C@@]4(C)CC[C@@H]32)C1 | 4.10
C[C@@H]1CC[C@@]2(OC1)O[C@H]1C[C@H]3[C@@H]4CC=C5C[C@@H](O)CC[C@]5(C)[C@H]4CC[C@]3(C)[C@H]1[C@@H]2C [DISOGENIN] | 4.31
CO[C@@]12[C@H](COC(N)=O)C3=C(C(=O)C(C)=C(N)C3=O)N1C[C@@H]1N[C@@H]12 [MITOMYCIN] | 4.96

All values here come from ChEMBL document CHEMBL4715838.
